assay: Half-life of the conjugate when treated with 25% murine serum for enzymatic stability; No data available; assay type: ADME; conditions: mouse
Starred links: 1 amine or outer side, 2 acyl side, 3 side chain; linkers in the order of their positions; H or OH if unused. Non-standard residues stand in square brackets, D forms with d. Residues, ends and D or L forms follow the SMILES beside them. X1 = NCCCC(CC(=O)[*:2])N[*:1]; hLys = NCCCCC[C@H](N)C(=O)O; Nlys = NCCCCNCC(=O)O
quantity: T1/2

NCCCC[C@H](NC(=O)CN(CCCCN)C(=O)[C@H](CCCCN)NC(=O)CN(CCCCN)C(=O)[C@H](CCCCN)NC(=O)CN(CCCCN)C(=O)[C@H](CCCCN)NC(=O)CN(CCCCN)C(=O)[C@@H](N)CCCCN)C(=O)O (H-K[Nlys]K[Nlys]K[Nlys]K[Nlys]K-OH)    No data available
NCCCCC[C@H](NC(=O)[C@H](CCCCN)NC(=O)[C@H](CCCCCN)NC(=O)[C@H](CCCCN)NC(=O)[C@H](CCCCCN)NC(=O)[C@H](CCCCN)NC(=O)[C@H](CCCCCN)NC(=O)[C@@H](N)CCCCN)C(=O)N[C@H](C=O)CCCCN (H-K[hLys]K[hLys]K[hLys]K[hLys]K-aldehyde)    No data available
NCCCC[C@@H](C=O)NC(=O)[C@H](CCCCN)NC(=O)[C@H](CCCCN)NC(=O)CC(CCCN)NC(=O)[C@H](CCCCN)NC(=O)[C@H](CCCCN)NC(=O)CC(CCCN)NC(=O)[C@H](CCCCN)NC(=O)[C@@H](N)CCCCN (some centres undefined) (H-KK[X1]KK[X1]KKK-aldehyde)    No data available
NCCCC[C@@H](C=O)NOC(=O)[C@H](CCCN)NOC(=O)[C@H](CCCN)NC(=O)[C@H](CCCCN)NC(=O)[C@H](CCCCN)NC(=O)[C@H](CCCCN)NC(=O)[C@H](CCCCN)NOC(=O)[C@H](CCCN)NOC(=O)[C@@H](N)CCCN    No data available

Reference source: ChEMBL document CHEMBL1141128
